Biological target: KRas (Homo sapiens, UniProt P01116, G12C)
Assay: KRas degradation in SW1573 cells by Western blot, normalized to GAPDH (data of Table 14)
Assay type: cell-based
Conditions: SW1573 cells, 0.1 μM
Measured parameter: Percent Degradation at Indicated Concentration (μM)

{"Compound": "C=CC(=O)N1CCN(c2nc(OC[C@@H]3C[C@@H](OCCOCCOCCOCCOCCNc4cccc5c4C(=O)N(C4CCC(=O)NC4=O)C5=O)CN3C)nc3c2CCN(c2cccc4ccccc24)C3)C[C@@H]1CC#N (stereo partly drawn)", "Target system": "KRas (Homo sapiens, UniProt P01116, G12C)", "Test result": "B (35 < B < 70)"}
{"Compound": "C=CC(=O)N1CCN(c2nc(OC[C@@H]3C[C@@H](OCCOCCOCCOCCNc4cccc5c4C(=O)N(C4CCC(=O)NC4=O)C5=O)CN3C)nc3c2CCN(c2cccc4ccccc24)C3)C[C@@H]1CC#N (stereo partly drawn)", "Target system": "KRas (Homo sapiens, UniProt P01116, G12C)", "Test result": "B (35 < B < 70)"}
